System: TK-10
Test: NCI tumour cell line growth inhibition, 48 h
Active and inactive are the calls of the source. No stated cut-off is given here; in the data, active = GI50 up to about 1.1 µM and inactive = higher.
Recorded measurements of GI50, one per entry

{"columns": ["compound", "measurement"],
 "data": [
  ["COc1cc(C=O)cc(/C=N/c2ccc(Br)cc2)c1O", "32.4 µM (inactive)"],
  ["COc1ccc(NC(=O)CC/C(CC(=O)c2ccco2)=N/NC(=O)C(N)=O)cc1", "> 100 µM (inactive)"]
]}

Inquiry: // returns reported GI50 for input `COc1ccc2c(c1)CCCN2CCCCCCCCCCN(CCC(C)C)CCC(C)C`
Reply text: 16.4 µM (inactive)

Inquiry: // returns reported GI50 for input `CC1(C)[C@@H](Cn2cnc3c(N)ncnc32)CC[C@@]1(C)CO`
Reply text: > 100 µM (inactive)

Inquiry: // returns reported GI50 for input `O=C(O)c1cc(Sc2ccc([N+](=O)[O-])c(C(=O)O)c2)ccc1[N+](=O)[O-]`
Reply text: > 100 µM (inactive)

Inquiry: // returns reported GI50 for input `CCCCCCOc1ccc(C(=O)N(C)O)cc1`
Reply text: 46.3 µM (inactive)

Inquiry: // returns reported GI50 for input `Cc1cc(C)nc(NS(=O)(=O)c2ccc(Nc3c4ccccc4nc4c(C(=O)NCCN(C)C)ccc(Cl)c34)cc2)n1`
Reply text: 5.07 µM (inactive)

Inquiry: // returns reported GI50 for input `C=C1c2nc3ccccc3n2C=C(c2ccc(OC)cc2)N1c1ccc(OCCN2CCOCC2)cc1`
Reply text: 18.1 µM (inactive)

----------
System: M14
Assay: NCI tumour cell line growth inhibition, 48 h
Calls of active or inactive are those of the source. Cut-off read from the data, not from the text of the source: active = GI50 up to about 1.1 µM and inactive = higher.
Your reply should match one of these outcome classes. 1 (active), 0 (inactive)

{"columns": ["compound", "classAssignment"],
 "data": [
  ["CC(C)(C)c1cc(C(=O)/C=C/C=C/c2ccccc2)cc(C(C)(C)C)c1O", 0],
  ["COc1cc(C2c3cc4c(cc3OC(Nc3ccccc3)C2C)OCO4)cc(OC)c1OC (configuration not stated)", 1],
  ["COc1c(C2=NC(C(C)C)CO2)ccc2ccccc12 (configuration not stated)", 0],
  ["C/C(=N\\NC(=S)N1CC2CCC(CC2)C1)c1cccc(C)n1", 1],
  ["CC(C)NC(=O)N(Nc1ccccc1)C(C)(C)C", 0],
  ["COc1cccc(C2c3cc4c(cc3OC(N3CCCCC3)C2C)OCO4)c1O (configuration not stated)", 0]
]}

# input for lookup
Inquiry: How was `COc1cc2c(cc1OC)-c1cc(OC)c(OC)cc1[C@H]1CN3CCC[C@@]3(O)C=C21` classified in this test?
Reply text: 1

----------
Test system: TK-10
Test: NCI tumour cell line growth inhibition, 48 h
Calls of active or inactive are those of the source. No stated cut-off is given here; in the data, active = GI50 up to about 1.1 µM and inactive = higher.
Your reply should match one of these outcome classes. active, inactive

Would you please look over these solved cases?
{"columns": ["molecule", "assayedTarget", "classAssignment"],
 "data": [
  ["O=c1[nH]c(C2CCCCC2)nc2ccc(Cl)cc12", "TK-10", "inactive"],
  ["COc1cc2cc(C(=O)N3CC(CCl)c4c3cc(NCCN)c3ccccc43)[nH]c2c(OC)c1OC (stereo not given)", "TK-10", "active"],
  ["O=C(Nc1ccc(/N=N/c2ccccc2)cc1)Sc1ccccc1C(=O)O", "TK-10", "inactive"]
]}

Inquiry: How was CC(NC1=NCCO1)c1ccco1 (stereo not given) classified in this test?
Reply text: inactive

Inquiry: How was `O=C(OCc1ccccc1)N(CCCCN(CCCNC(=O)C(F)(F)F)C(=O)OCc1ccccc1)CCCNC(=O)C(F)(F)F` classified in this test?
Reply text: inactive

Inquiry: How was CC(=O)O[C@H]1C(=O)[C@]2(C)[C@@H](OC(=O)OCCC(O)CO)C[C@H]3OC[C@@]3(OC(C)=O)[C@H]2[C@H](OC(=O)c2ccccc2)[C@]2(O)C[C@H](OC(=O)[C@H](O)[C@@H](NC(=O)c3ccccc3)c3ccccc3)C(C)=C1C2(C)C (stereo not given in full) classified in this test?
Reply text: inactive

Inquiry: How was COC(=O)/C(=N\Nc1nc(S)nn1N)C(C#N)c1ccc(Cl)cc1 (stereo not given) classified in this test?
Reply text: inactive
